Some compounds, each annotated with its measured pest or weed control at 15.625 g/ha.
# Tested on: ivy-leaved morning glory (Ipomoea hederacea)
# ASSAY_SUMMARY: Test G Post-Emergence Protocol
# Format: in vivo
# STUDY_CONDITIONS: Ipomoea, post-emergence, 312 h, 15.625 g ai/ha, evaluated after 13 days (100=total damage to plant; 0=no damage to plant), read-out: Morningglory, Ivy-leaved damage rating

{"columns": ["COMPOUND", "TESTED_ON", "pest or weed control at 15.625 g/ha"],
 "data": [
  ["CN1C[C@H](c2ccc(C(F)(F)F)cc2)[C@@H](C(=O)Nc2cccc3ccsc23)C1=O (racemic)", "ivy-leaved morning glory (Ipomoea hederacea)", "0%"],
  ["Cc1ccc(NC(=O)[C@@H]2C(=O)N(C)C[C@H]2c2ccc(C(F)(F)F)cc2)nn1 (racemic)", "ivy-leaved morning glory (Ipomoea hederacea)", "0%"],
  ["Cc1cc([C@H]2CN(C)C(=O)[C@@H]2C(=O)Nc2ccccc2S(C)(=O)=O)cc(C(F)(F)F)c1 (racemic)", "ivy-leaved morning glory (Ipomoea hederacea)", "10%"],
  ["CN1C[C@@H](c2cc(Cl)cc(C(F)(F)F)c2)[C@H](C(=O)Nc2ccccc2F)C1=O (racemic)", "ivy-leaved morning glory (Ipomoea hederacea)", "0%"],
  ["COc1c(Cl)ccc([C@H]2CN(C)C(=O)[C@@H]2C(=O)Nc2cccc(F)c2F)c1F (racemic)", "ivy-leaved morning glory (Ipomoea hederacea)", "20%"],
  ["Cc1c(NC(=O)[C@@H]2C(=O)N(C)C[C@H]2c2ccc(C(F)(F)F)cc2)ccc(F)c1F (racemic)", "ivy-leaved morning glory (Ipomoea hederacea)", "0%"],
  ["CN1C[C@@H](c2ccc(Cl)nc2)[C@H](C(=O)Nc2cccc(F)c2F)C1=O (racemic)", "ivy-leaved morning glory (Ipomoea hederacea)", "0%"],
  ["CN1C[C@@H](c2ccc(C(F)(F)F)cc2)[C@H](C(=O)Nc2ccc(C(F)(F)F)nc2Cl)C1=O (racemic)", "ivy-leaved morning glory (Ipomoea hederacea)", "0%"],
  ["CSc1ncccc1NC(=O)[C@H]1C(=O)N(C)C[C@@H]1c1ccc(C(F)(F)F)cc1 (racemic)", "ivy-leaved morning glory (Ipomoea hederacea)", "0%"],
  ["CN1C[C@H](c2ccc(C(F)(F)F)cc2)[C@@H](C(=O)Nc2cc(C#N)ccn2)C1=O (racemic)", "ivy-leaved morning glory (Ipomoea hederacea)", "0%"],
  ["Cc1cc(C#N)cc(C2CN(C)C(=O)C2C(=O)Nc2cccc(F)c2F)c1 (centres unmarked)", "ivy-leaved morning glory (Ipomoea hederacea)", "0%"],
  ["CN1C[C@H](c2cccc(C(F)(F)F)c2)[C@@H](C(=O)Nc2cccnc2F)C1=O", "ivy-leaved morning glory (Ipomoea hederacea)", "60%"],
  ["CN1C[C@H](c2ccc(C(F)(F)F)cc2)[C@@H](C(=O)Nc2ccc(F)cn2)C1=O (racemic)", "ivy-leaved morning glory (Ipomoea hederacea)", "0%"],
  ["CN1C[C@H](c2ccc(C(F)(F)F)cc2)[C@@H](C(=O)Nc2ccccc2C(C)(C)C)C1=O (racemic)", "ivy-leaved morning glory (Ipomoea hederacea)", "0%"],
  ["CN1C[C@@H](c2ccc(C(F)(F)F)cc2)[C@H](C(=O)Nc2nnc(C(F)(F)F)s2)C1=O (racemic)", "ivy-leaved morning glory (Ipomoea hederacea)", "0%"],
  ["CN1C[C@@H](c2ccc(C(F)(F)F)cc2)[C@H](C(=O)Nc2cnccc2Cl)C1=O (racemic)", "ivy-leaved morning glory (Ipomoea hederacea)", "0%"],
  ["CN1C[C@H](c2cccc(C(F)(F)F)c2)[C@@H](C(=O)Nc2c(O)cccc2F)C1=O (racemic)", "ivy-leaved morning glory (Ipomoea hederacea)", "0%"],
  ["CN1C[C@H](c2ccnc(C(C)(C)C)n2)[C@@H](C(=O)Nc2ccc(F)c(F)c2F)C1=O (racemic)", "ivy-leaved morning glory (Ipomoea hederacea)", "0%"],
  ["CN1C[C@@H](c2ccc(C(F)(F)F)cc2)[C@H](C(=O)Nc2cscn2)C1=O (racemic)", "ivy-leaved morning glory (Ipomoea hederacea)", "0%"],
  ["CN1CCC(NC(=O)[C@H]2C(=O)N(C)C[C@@H]2c2ccc(C(F)(F)F)cc2)C1=O (mixture of isomers)", "ivy-leaved morning glory (Ipomoea hederacea)", "0%"],
  ["Cc1nc(Cl)ccc1NC(=O)[C@H]1C(=O)N(C)C[C@@H]1c1ccc(C(F)(F)F)cc1 (racemic)", "ivy-leaved morning glory (Ipomoea hederacea)", "0%"],
  ["COc1c(F)cc(C2CN(C)C(=O)C2C(=O)Nc2cccc(F)c2F)cc1F (centres unmarked)", "ivy-leaved morning glory (Ipomoea hederacea)", "10%"],
  ["Cc1cc(NC(=O)[C@@H]2C(=O)N(C)C[C@H]2c2ccc(C(F)(F)F)cc2)no1 (racemic)", "ivy-leaved morning glory (Ipomoea hederacea)", "0%"]
]}
